Target: 20S brain proteasome
Construct: from tissue; host or cells: mouse brain
Test: Inhibition of 20S brain proteasome hydrolysis of oligoglutamine-containing FRET substrates
Assay type: biochemical, mouse
Conditions: substrate Dabcyl-KQ5 PPD-EDANS; 20 mM Tris-HCl pH 7.5, 1 mM DTT, 1 mM EDTA; [20S] = 50 nM; n.d. = not detected; read-out: IC50 of Dabcyl-KQ5 PPD-EDANS hydrolysis by 20S brain proteasome
Peptide text beside a SMILES is read from it. * marks the point of attachment. Cbz = O=C(OCc1ccccc1)*
readout_kind: IC50 (µM)
Numbers only, in µM.

Req: State its IC50 on 20S brain proteasome: CC(C)C[C@@H](C=O)NC(=O)[C@H](CC(C)C)NC(=O)[C@H](CC(C)C)NC(=O)OCc1ccccc1 [Z-LLL-CHO (MG132)] (Cbz-Leu-Leu-Leu-aldehyde)
Resp: 50

----------
Biological target: 20S brain proteasome, trypsin-like activity (Mus musculus, UniProt P70195+Q9R1P1)
Assay: Inhibition of 20S brain proteasome hydrolysis of Ac-RLR-AMC (trypsin-like activity)
Settings: 20 mM Tris-HCl pH 7.5, 1 mM DTT, 1 mM EDTA; [20S] = 50 nM; [Ac-RLR-AMC] = 50 µM
Peptide text beside a SMILES is read from it. * marks the point of attachment. Cbz = O=C(OCc1ccccc1)*
Please provide measured pIC50 for the entries that follow.
Give bare numbers, as −log10 of the molar value.

molecule	readout_kind	measured_result
C[C@@]12OC(=O)[C@]1([C@@H](O)[C@@H]1C=CCCC1)NC(=O)[C@@H]2CCCl [Marizomib]	pIC50	6.95

Shift focus to the following entry.
Req: Entry under review: CC(C)C[C@@H](C=O)NC(=O)[C@H](CC(C)C)NC(=O)[C@H](CC(C)C)NC(=O)OCc1ccccc1 [Z-LLL-CHO (MG132)] (Cbz-Leu-Leu-Leu-aldehyde) . Reported pIC50?
Resp: 5.55
